- ASSAY OVERVIEW: protein stability index of a GFP-peptide fusion (yeast GPS) (PSI 1-4); higher = more stable; sorted into four equal gates, so the index is relative within each strain
- CONDITION SET: ubr1∆
protein stability index values for the sequences below.
Answer with a number only.

Look over these answered cases.
HVNKRKRVSGTSQHSDS [YOR098C/NUP1] | 1.64
SNVLDGNKNQFEPSISR [LRP1] | 3.36
ESYKPSVQLPDMAKLKK [SWI3] | 2.79
EEAYDNPHDTLNRIKKY [PRP8] | 3.4
GDKEATAPLIQRKNKKN [RPN8] | 3.15
SSQFVRLASEPGIISIT [YMR129W/POM152] | 1.78

Now let's try a different one.
QUERY: Please look up its protein stability index: KPYVDRFAFSVIWELDD [DIS3]
RESULT: 2.38

---

- ASSAY OVERVIEW: protein stability index of a GFP-peptide fusion (yeast GPS) (PSI 1-4); higher = more stable; sorted into four equal gates, so the index is relative within each strain
- CONDITION SET: ubr1∆
OBSERVATION TYPE: protein stability index
Answer with a number only.

QMDQQLQYTALTGSPNN [ARP7] | 3.13

QUERY: Please look up its protein stability index: KAGVEAISQSLRDESLT [PRE5]
RESULT: 3.07

QUERY: Try IRINDEPILGQITLTFI [YML103C/NUP188] next.
RESULT: 2.25

QUERY: Try LKPVDKLKPMNIERKQT [SIN4] next.
RESULT: 3.04

QUERY: Try AFVEFGASVIAGGQRIV [SWP82] next.
RESULT: 2.07

QUERY: Try TIPILESDSKATLQSNE [DSN1] next.
RESULT: 2.67

QUERY: Try SDWNPQADLQAMDRAHR [ISW2] next.
RESULT: 3.39

---

- ASSAY OVERVIEW: protein stability index of a GFP-peptide fusion (yeast GPS) (PSI 1-4); higher = more stable; sorted into four equal gates, so the index is relative within each strain
- CONDITION SET: ubr1∆
OBSERVATION TYPE: protein stability index
Answer with a number only.

VKEEYDIWQSRDQGNDS [YIL149C/MLP2] | 3.34
HGHLGFLPRKRAASIRA [RPL3] | 2.2
NDIDDLDMELAELDPSL [SEC65] | 3.03
LQIGDVVERHLEDGDVV [RPO31] | 3.39
DSNKTLLHNHLKSIESL [SMC2] | 2.78

QUERY: Please look up its protein stability index: IWLLSYIQYLGHLPEVS [ECM29]
RESULT: 1.92

QUERY: Try HKQISAEDLTIAAKTHI [SIN4] next.
RESULT: 2.76

---

protein stability index values for the sequences below.
- ASSAY OVERVIEW: protein stability index of a GFP-peptide fusion (yeast GPS) (PSI 1-4); higher = more stable; sorted into four equal gates, so the index is relative within each strain
- CONDITION SET: ubr1∆
Answer with a number only.

Look over these answered cases.
PHLFVNGDLTVSLCAKN [SSN2] | 1.87
IVPGTYIQERNPSQRPQ [RPS10B] | 3.26
PSQGVHYKVPTDTSTTA [MED6] | 2.76
STRLKKACKTADKLVNV [SRP68] | 3.18
ANLLQINVDNDPFFAQS [YML103C/NUP188] | 2.93

QUERY: Please look up its protein stability index: GRKVLQKVQGESHIDSR [SIR4]
RESULT: 3.27

QUERY: Try SIGEPGTQMTLKTFHFA [RPO31] next.
RESULT: 2.65

QUERY: Try CEKWAASSWAKKIAQRE [RPL14A] next.
RESULT: 2.06

QUERY: Try AEWSLVRIYSGLLKRGD [SNU114] next.
RESULT: 3.29
